Origin of values: patent US20260116991A1

SUBJECT OF TEST: T1, polypeptide GC3pep (human)
T1 construct: also called membrane proximal polypeptide GC3pep
T1 peptide: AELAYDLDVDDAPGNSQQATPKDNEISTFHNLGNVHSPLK
METHOD DESCRIPTION: ELISA, GC3pep coated, antibody 0.0001 nM
QUANTITY: OD450 nm (OD450 nm)
Numbers only, in OD450 nm.

Notebook: F1.83.6 (antibody, human IgG1, kappa, V domains shown, human-murine chimeric antibody) VH: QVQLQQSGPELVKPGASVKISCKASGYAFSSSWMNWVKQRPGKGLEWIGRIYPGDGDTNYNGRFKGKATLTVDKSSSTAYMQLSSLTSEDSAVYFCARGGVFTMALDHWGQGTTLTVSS VL: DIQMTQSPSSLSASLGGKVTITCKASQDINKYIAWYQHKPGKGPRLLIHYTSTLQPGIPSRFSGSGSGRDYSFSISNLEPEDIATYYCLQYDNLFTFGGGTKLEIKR , OD450 nm read as 0.04

I would be grateful if you could provide OD450 nm for each of the following entries.
1. F1.110.24 (antibody, human IgG1, kappa, V domains shown, human-murine chimeric antibody) VH: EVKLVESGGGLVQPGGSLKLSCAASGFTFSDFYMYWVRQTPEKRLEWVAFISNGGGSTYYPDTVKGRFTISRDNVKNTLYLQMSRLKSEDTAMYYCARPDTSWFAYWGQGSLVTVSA VL: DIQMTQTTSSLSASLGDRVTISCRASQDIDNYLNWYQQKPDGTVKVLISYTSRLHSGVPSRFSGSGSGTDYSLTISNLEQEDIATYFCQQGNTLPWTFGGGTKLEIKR
2. F4.26.1 (antibody, human IgG1, kappa, V domains shown, human-murine chimeric antibody) VH: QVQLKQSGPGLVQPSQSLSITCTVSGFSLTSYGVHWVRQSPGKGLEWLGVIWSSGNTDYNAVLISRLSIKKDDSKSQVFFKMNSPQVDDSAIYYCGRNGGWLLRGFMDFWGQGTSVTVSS VL: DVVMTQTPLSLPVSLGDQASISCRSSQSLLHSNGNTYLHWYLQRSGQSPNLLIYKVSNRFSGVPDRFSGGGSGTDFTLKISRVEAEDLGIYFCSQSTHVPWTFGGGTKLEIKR
3. F1.153.1 (antibody, human IgG1, kappa, V domains shown, human-murine chimeric antibody) VH: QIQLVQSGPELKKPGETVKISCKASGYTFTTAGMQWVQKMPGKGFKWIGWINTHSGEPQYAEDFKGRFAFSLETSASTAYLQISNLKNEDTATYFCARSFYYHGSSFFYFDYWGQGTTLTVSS VL: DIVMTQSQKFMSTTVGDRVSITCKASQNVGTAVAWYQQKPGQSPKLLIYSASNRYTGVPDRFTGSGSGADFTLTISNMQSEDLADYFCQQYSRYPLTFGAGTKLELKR
4. F1.92.17 (antibody, human IgG1, kappa, V domains shown, human-murine chimeric antibody) VH: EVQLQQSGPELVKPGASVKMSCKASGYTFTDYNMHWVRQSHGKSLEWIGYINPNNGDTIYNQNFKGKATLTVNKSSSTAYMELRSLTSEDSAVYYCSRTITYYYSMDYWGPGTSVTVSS VL: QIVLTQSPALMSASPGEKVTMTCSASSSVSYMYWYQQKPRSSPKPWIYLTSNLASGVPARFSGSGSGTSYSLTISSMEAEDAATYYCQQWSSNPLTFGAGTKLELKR
5. F2.92.1 (antibody, human IgG1, kappa, V domains shown, human-murine chimeric antibody) VH: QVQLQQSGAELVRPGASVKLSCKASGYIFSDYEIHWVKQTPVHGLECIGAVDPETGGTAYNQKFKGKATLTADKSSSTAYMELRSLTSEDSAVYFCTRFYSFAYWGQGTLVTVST VL: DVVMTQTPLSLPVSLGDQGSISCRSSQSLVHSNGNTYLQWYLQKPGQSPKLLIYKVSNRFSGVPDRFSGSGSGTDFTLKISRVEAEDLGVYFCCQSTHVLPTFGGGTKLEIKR
6. F2.39.2 (antibody, human IgG1, kappa, V domains shown, human-murine chimeric antibody) VH: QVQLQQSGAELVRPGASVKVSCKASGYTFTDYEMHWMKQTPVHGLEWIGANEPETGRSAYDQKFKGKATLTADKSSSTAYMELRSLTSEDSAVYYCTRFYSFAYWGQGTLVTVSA VL: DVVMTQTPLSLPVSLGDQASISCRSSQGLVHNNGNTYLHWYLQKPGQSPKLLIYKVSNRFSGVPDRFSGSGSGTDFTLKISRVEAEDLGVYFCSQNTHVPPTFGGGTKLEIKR
7. F2.152.3 (antibody, human IgG1, kappa, V domains shown, human-murine chimeric antibody) VH: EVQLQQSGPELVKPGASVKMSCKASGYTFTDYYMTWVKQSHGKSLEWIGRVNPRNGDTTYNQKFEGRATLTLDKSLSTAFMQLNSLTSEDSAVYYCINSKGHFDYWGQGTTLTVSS VL: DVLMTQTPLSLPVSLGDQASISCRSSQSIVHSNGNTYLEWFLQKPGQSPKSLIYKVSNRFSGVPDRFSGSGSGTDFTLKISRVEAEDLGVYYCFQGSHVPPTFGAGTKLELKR

Reply |
[0.04, 0.05, 0.06, 0.05, 0.05, 0.05, 0.05]

I would be grateful if you could provide OD450 nm for each of the following entries.
1. F3.38.7 (antibody, human IgG1, kappa, V domains shown, human-murine chimeric antibody) VH: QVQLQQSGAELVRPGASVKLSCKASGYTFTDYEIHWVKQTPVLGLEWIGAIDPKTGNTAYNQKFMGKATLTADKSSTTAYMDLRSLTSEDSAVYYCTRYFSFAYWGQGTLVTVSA VL: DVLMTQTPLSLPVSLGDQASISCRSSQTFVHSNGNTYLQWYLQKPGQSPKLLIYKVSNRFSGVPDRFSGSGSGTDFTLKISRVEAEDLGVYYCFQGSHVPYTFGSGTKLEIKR
2. F1.115.8 (antibody, human IgG1, kappa, V domains shown, human-murine chimeric antibody) VH: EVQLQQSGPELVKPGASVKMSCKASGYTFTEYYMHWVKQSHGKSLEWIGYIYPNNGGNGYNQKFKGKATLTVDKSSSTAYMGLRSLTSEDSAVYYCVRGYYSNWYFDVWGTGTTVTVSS VL: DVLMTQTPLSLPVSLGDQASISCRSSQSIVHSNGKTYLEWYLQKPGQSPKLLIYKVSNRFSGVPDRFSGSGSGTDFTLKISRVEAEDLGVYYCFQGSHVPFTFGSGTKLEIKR

Reply |
1: 0.05; 2: 0.05
